Origin of the recorded values: BigSolDB 2.1

- SETUP CONDITIONS: in formamide, 288.15 K
MEASUREMENT KIND: solubility (mole fraction)
Lab note: jot the number down without any unit.

Problem: Recorded solubility (mole fraction) of O=S(=O)([O-])NC1CCCCC1.[Na+] , please.
Result: 0.0391

----------
- SETUP CONDITIONS: in DMF, 303.13 K
MEASUREMENT KIND: solubility (mole fraction)
Lab note: jot the number down without any unit.

Problem: Recorded solubility (mole fraction) of O=S(=O)([O-])NC1CCCCC1.[Na+] , please.
Result: 0.00051

----------
- SETUP CONDITIONS: in DMF, 323.17 K
MEASUREMENT KIND: solubility (mole fraction)
Lab note: jot the number down without any unit.

Problem: Recorded solubility (mole fraction) of O=S(=O)([O-])NC1CCCCC1.[Na+] , please.
Result: 0.00141

----------
- SETUP CONDITIONS: in methanol, 318.2 K
MEASUREMENT KIND: solubility (mole fraction)
Lab note: jot the number down without any unit.

Problem: Recorded solubility (mole fraction) of O=S(=O)([O-])NC1CCCCC1.[Na+] , please.
Result: 0.00436

----------
- SETUP CONDITIONS: in DMF, 308.15 K
MEASUREMENT KIND: solubility (mole fraction)
Lab note: jot the number down without any unit.

Problem: Recorded solubility (mole fraction) of O=S(=O)([O-])NC1CCCCC1.[Na+] , please.
Result: 0.000724

----------
- SETUP CONDITIONS: in DMSO, 313.16 K
MEASUREMENT KIND: solubility (mole fraction)
Lab note: jot the number down without any unit.

Problem: Recorded solubility (mole fraction) of O=S(=O)([O-])NC1CCCCC1.[Na+] , please.
Result: 0.0117

----------
- SETUP CONDITIONS: in water, 298.14 K
MEASUREMENT KIND: solubility (mole fraction)
Lab note: jot the number down without any unit.

Problem: Recorded solubility (mole fraction) of O=S(=O)([O-])NC1CCCCC1.[Na+] , please.
Result: 0.02

----------
- SETUP CONDITIONS: in methanol, 308.2 K
MEASUREMENT KIND: solubility (mole fraction)
Lab note: jot the number down without any unit.

Problem: Recorded solubility (mole fraction) of O=S(=O)([O-])NC1CCCCC1.[Na+] , please.
Result: 0.00376

----------
- SETUP CONDITIONS: in acetic acid, 313.15 K
MEASUREMENT KIND: solubility (mole fraction)
Lab note: jot the number down without any unit.

Problem: Recorded solubility (mole fraction) of O=S(=O)([O-])NC1CCCCC1.[Na+] , please.
Result: 0.00877

----------
- SETUP CONDITIONS: in acetic acid, 323.15 K
MEASUREMENT KIND: solubility (mole fraction)
Lab note: jot the number down without any unit.

Problem: Recorded solubility (mole fraction) of O=S(=O)([O-])NC1CCCCC1.[Na+] , please.
Result: 0.0115

----------
- SETUP CONDITIONS: in formamide, 298.17 K
MEASUREMENT KIND: solubility (mole fraction)
Lab note: jot the number down without any unit.

Problem: Recorded solubility (mole fraction) of O=S(=O)([O-])NC1CCCCC1.[Na+] , please.
Result: 0.0472

----------
- SETUP CONDITIONS: in DMF, 288.14 K
MEASUREMENT KIND: solubility (mole fraction)

Problem: Recorded solubility (mole fraction) of O=S(=O)([O-])NC1CCCCC1.[Na+] , please.
Result: 0.000121
